All values here come from PubChem BioAssay.

Would you mind telling me the reported double positive events of each entry?
# ASSAY_OVERVIEW: inhibitors of CD8+ T cell-vesicle binding, pilot screen, LFA-1/ICAM-1 modulator project, MLPCN validation set, flow cytometry (AID 2523)
# TEST_CONDITIONS: 2C mouse CD8+ T cells, at 7 µM, stronger effect = lower value; measured here: CD8+/vesicle+ event percentage
Answer format: numeric, % implied, no suffix.

Query: Which double positive events reading was recorded for the compound COCc1cc(=O)[nH]c(Nc2nc3ccccc3o2)n1 ?
Result: 62.6

Query: Look up double positive events for this compound: CC(CCc1ccccc1)NCC(O)c1ccc(O)c(C(N)=O)c1 (centres undefined)
Result: 52.5

Query: # get_value(readout='double positive events', item= COc1ccc2c(c1OC)C(=O)NC(C)=C(C(=O)OC(C)(C)C)C2O (centres undefined) )
Result: 62.8

Query: Please give the measured double positive events for this compound: NC(=O)OCC(COC(N)=O)c1ccccc1
Result: 58.1

Query: I am curious: what double positive events value has been reported for Cc1nc(C)c(C)nc1C ?
Result: 64.7

Query: Any idea what its double positive events is? The compound is CCOC(=O)[C@H](CCc1ccccc1)N[C@@H](C)C(=O)N1CCC[C@H]1C(=O)O
Result: 64.3

Query: Consider the compound shown here: Cc1ccc2[nH]c3c(c2c1)CN(C(=O)CN1CCSCC1)CC3 What is its recorded double positive events?
Result: 60.8

Query: So what does the record say about double positive events for NS(=O)(=O)c1cc2c(cc1C(F)(F)F)NCNS2(=O)=O ?
Result: 80.6

Query: What measured double positive events goes with O=C(O)c1cc(-c2ccc3c(c2)OCO3)nc2ccc(Br)cc12 ?
Result: 67

Query: # query: double positive events of entry CN1CCN(CCCN2c3ccccc3Sc3ccc(C(F)(F)F)cc32)CC1
Result: 64.7

Query: Form field: reported double positive events of Cc1ccccc1C(OCCN(C)C)c1ccccc1 (centres undefined)
Result: 51.2

Query: Consider the compound shown here: CC1(C)CC(CC(=O)Nc2nccs2)(c2ccccc2)CCO1 (centres undefined) What is its recorded double positive events?
Result: 51.5

Query: Give its double positive events value. Item: CCOC(=O)Cc1c(C)nc(N)[nH]c1=O
Result: 64.8

Query: Record request: double positive events value, item COc1cc(C2C(C(=O)c3ccc(C)o3)=C(O)C(=O)N2Cc2cccnc2)ccc1O (centres undefined)
Result: 68.3

Query: What does the record list as double positive events for COc1ccc(C(=O)Nc2ccccc2C(=O)NCCCn2ccnc2)cc1 ?
Result: 59.2

Query: Which double positive events is listed for Cc1ccc(P(=O)(CSC(=N)N)c2ccc(C)cc2)cc1 ?
Result: 60.2

Query: Would you kindly share the measured double positive events for O=C(NCCc1nc2ccccc2[nH]1)c1cccc(Br)c1 ?
Result: 72.8

Query: double positive events; subject: O=C(/C=C/c1ccccc1)/C=C/c1ccccc1
Result: 69.3

Query: Item under review: CCCOc1ccc(-c2cc(C(=O)NCC3CCCO3)c3ccccc3n2)cc1 (centres undefined) . Reported double positive events?
Result: 55.9

Query: What value of measured double positive events is listed for O=c1nc2cccc3c2=c(/c1=C(\O)c1ccccc1)c1ccccc1c3=O ?
Result: 47.4

Query: Which double positive events is reported for this compound? CNS(=O)(=O)c1ccc(C)cc1
Result: 56.5

Query: Need double positive events of Cn1c(=O)c2c(nc(SCCN3CCCCC3)n2C)n(C)c1=O , thanks.
Result: 61.5

Query: Item COc1ccc2c(CCNC(=O)c3ccc([N+](=O)[O-])cc3)c[nH]c2c1 has what recorded double positive events?
Result: 56.1

Query: double positive events for C[C@]12CC[C@H]3C(=CCc4cc(O)ccc43)[C@@H]1CCC2=O ?
Result: 59.4
